Catalogue of molecules with associated inhibition
Target: Leukocyte tyrosine kinase receptor (Homo sapiens) (UniProt P29376);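 also: each value is the mean inhibition of LTK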
Sequence (P29376 whole entry): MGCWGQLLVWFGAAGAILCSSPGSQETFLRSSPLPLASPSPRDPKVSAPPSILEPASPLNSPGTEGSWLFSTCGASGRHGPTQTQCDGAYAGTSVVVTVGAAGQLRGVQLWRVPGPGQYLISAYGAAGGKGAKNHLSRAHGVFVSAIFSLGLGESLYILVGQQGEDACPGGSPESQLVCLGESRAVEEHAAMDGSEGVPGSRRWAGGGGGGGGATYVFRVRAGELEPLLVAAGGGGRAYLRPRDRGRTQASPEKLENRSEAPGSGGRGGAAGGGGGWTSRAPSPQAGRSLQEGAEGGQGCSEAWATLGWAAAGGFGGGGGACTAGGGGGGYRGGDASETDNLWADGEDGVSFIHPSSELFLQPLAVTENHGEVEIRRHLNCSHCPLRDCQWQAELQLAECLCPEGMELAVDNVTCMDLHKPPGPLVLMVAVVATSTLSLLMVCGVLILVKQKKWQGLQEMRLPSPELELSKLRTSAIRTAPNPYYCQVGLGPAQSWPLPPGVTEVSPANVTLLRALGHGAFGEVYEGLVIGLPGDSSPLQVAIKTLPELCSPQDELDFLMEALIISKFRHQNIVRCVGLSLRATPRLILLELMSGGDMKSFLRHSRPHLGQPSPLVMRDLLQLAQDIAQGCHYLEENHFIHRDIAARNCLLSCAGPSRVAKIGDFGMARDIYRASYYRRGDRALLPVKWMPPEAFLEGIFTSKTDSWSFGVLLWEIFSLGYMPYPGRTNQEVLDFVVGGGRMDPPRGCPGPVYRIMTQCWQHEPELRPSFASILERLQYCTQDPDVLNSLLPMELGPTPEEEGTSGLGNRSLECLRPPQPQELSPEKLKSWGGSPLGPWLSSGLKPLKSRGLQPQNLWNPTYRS
Details: at 1 µM
result_type: inhibition (%)

- O=C(Nc1n[nH]c2nc(-c3ccc(O)cc3)c(Br)cc12)C1CC1: 91.6
- NCc1ccc(-n2c(-c3nonc3N)nc3cnccc32)cc1: 5.03
- COc1cc(Nc2ncc3c(C)nc(-c4cccc(C(F)(F)F)c4)n3n2)cc(OC)c1OC: 4.56
- COc1ccc2ncn(-c3cc(O[C@H](C)c4ccccc4Cl)c(C(N)=O)s3)c2c1: 2.89
- Fc1ccc(-c2nc3n(c2-c2ccncc2)CCS3)cc1: 2.85
- O=C(Nc1n[nH]c2cc(-c3ccccc3)ccc12)C1CC1: 9.93
- CCC(=O)Nc1ccc(C)c(-c2ccc(C(=O)NCC3CC3)cc2)c1: 3.92
- Cc1ccc(C(=O)NC(C)C)cc1-c1ccc(C(=O)NCC2CC2)cc1: -1.83
- CN(C)c1ccc2c(c1)/C(=C/Nc1ccc(S(N)(=O)=O)cc1)C(=O)N2: 2.8
- C[C@@H](Oc1cc(-n2cnc3ccc(OCC4CCN(C)CC4)cc32)sc1C(N)=O)c1ccccc1Cl: 10.3
- O=C(Nc1n[nH]c2cc(-c3cc(F)ccc3F)ccc12)C1CC1: 2.7
- Fc1ccc(-c2ncn(C3CCNCC3)c2-c2ccnc(Oc3ccc4c(c3)OCO4)n2)cc1: 8.02
- COc1cc2ncn(-c3cc(OCc4ccccc4C(F)(F)F)c(C(C)=O)s3)c2cc1OC: 3.33
- Fc1ccc(-c2ncn(C3CCNCC3)c2-c2ccnc(Oc3ccc(F)c(F)c3)n2)cc1: 2.29
- COc1ccc(C2=C(N3CCc4ccccc43)C(=O)NC2=O)cc1: 5.38
